- Test method notes: qHTS of pediatric cancer cell lines to identify multiple opportunities for drug repurposing: Primary screen for DAOY cells (AID 1347090); further: nearly all actives have a fitted effect of over 55% in size
- Measurement conditions: DAOY medulloblastoma viability, CellTiter-Glo luminescence, 48 h; series mostly up to 46 µM
Results filed as inconclusive are left out. Active and inactive are the calls of the source. The call rests on the fitted dose curve; in most records, active means well fitted cell-killing curve with a large enough effect; inconclusive means small, poorly fitted or top-dose-only effect; inactive means flat fitted curve, though single readings scatter.
// allowed return values: label 1 (active), label 0 (inactive)

CC(=O)O[C@]1(C(C)=O)CC[C@H]2[C@@H]3C=C(Cl)C4=CC(=O)CC[C@]4(C)[C@H]3CC[C@@]21C : label 0
Cc1ccc(O)c([C@H](CCN(C(C)C)C(C)C)c2ccccc2)c1 : label 0
CCCCCCCCCCCCCCCC(=O)O : label 0
CCCCC(CC)CN1CN(CC(CC)CCCC)CC(C)(N)C1 (stereo unspecified) : label 0
Nc1nc(Cl)nc2c1ncn2[C@@H]1O[C@H](CO)[C@@H](O)[C@@H]1F : label 1

What call does the record list for CCOc1ccccc1OCCN[C@H](C)Cc1ccc(OC)c(S(N)(=O)=O)c1 ?
label 0

What call does the record list for O=C(O)CCC(=O)Nc1ccc(S(=O)(=O)Nc2nccs2)cc1 ?
label 0

What call does the record list for O=C1C(O)=C(O)C(=O)C(O)=C1O ?
label 0

What call does the record list for Nc1ccc(S(=O)(=O)Nc2cnc3ccccc3n2)cc1 ?
label 0

What call does the record list for O=C(Nc1ncc([N+](=O)[O-])s1)c1cccs1 ?
label 1

What call does the record list for O=C(NCCc1c[nH]c2ccccc12)c1cccnc1 ?
label 0

What call does the record list for Oc1ccc(Cl)cc1Cc1cc(Cl)ccc1O ?
label 1

Each recorded value in this set is attributed to PubChem BioAssay (NCATS).
